protocol.text: solvent given as SMILES
condition.label: in CC(C)=O
value.type: absorption maximum
Provide the measurement as a number trailed by its unit.

What absorption maximum value was documented for this compound, CC1=CC(C)=[N+]2C1=C(c1ccc(N3CCOCC3)cc1)c1c(C)cc(C)n1[B-]2(F)F ? 490 nm

What absorption maximum value was documented for this compound, COc1ccc(-n2c3ccccc3c3cc(/C=C/C(=C(C#N)C#N)c4ccccc4)ccc32)cc1 ? 445 nm

What absorption maximum value was documented for this compound, CCC1(CC)c2cc(B(c3c(C)cc(C)cc3C)c3c(C)cc(C)cc3C)ccc2-c2c1c1c(c3c2C(CC)(CC)c2cc(B(c4c(C)cc(C)cc4C)c4c(C)cc(C)cc4C)ccc2-3)C(CC)(CC)c2cc(B(c3c(C)cc(C)cc3C)c3c(C)cc(C)cc3C)ccc2-1 ? 360 nm

What absorption maximum value was documented for this compound, CCOC(=O)/C(C#N)=C\c1ccc2c(c1)c1ccccc1n2-c1ccc(C)cc1 ? 388 nm

What absorption maximum value was documented for this compound, Cc1ccc(-n2c3ccccc3c3cc(C(=C(C#N)C#N)c4ccccc4)ccc32)cc1 ? 442 nm

What absorption maximum value was documented for this compound, c1ccc(-c2nn(-c3ccccc3)c3nc4ccc(-n5c6ccccc6c6ccccc65)cc4cc23)cc1 ? 412.03 nm

What absorption maximum value was documented for this compound, COc1ccc(-c2cc(-c3ccc(C)cc3)c(C#N)c(OC)n2)cc1 ? 340 nm

What absorption maximum value was documented for this compound, c1csc(-c2cnc(-c3cccs3)c3nonc23)c1 ? 461 nm

====

protocol.text: solvent given as SMILES
condition.label: in CS(C)=O
value.type: absorption maximum (nm)
Give the value, in units of nm, as a plain number.

Examples with answers:
compound_smiles=O=C1/C(=C2\Sc3ccc(S(=O)(=O)Nc4ccccc4)cc3C2=O)Sc2ccc(S(=O)(=O)Nc3ccccc3)cc21 value_type="absorption maximum" quantity_unit=nm quantitative_result=546
compound_smiles=COc1ccc(C2=[N+]3C(=Nc4c(C)cc(-c5ccc(OC)cc5)n4[B-]3(F)F)C(C)=C2)cc1 value_type="absorption maximum" quantity_unit=nm quantitative_result=656
compound_smiles=Cc1ccc(-n2c3ccccc3c3cc(C(=C(C#N)C#N)c4ccccc4)ccc32)cc1 value_type="absorption maximum" quantity_unit=nm quantitative_result=453
compound_smiles=CCC/N=C/c1cc2ccc(N(C)C)cc2cc1OC value_type="absorption maximum" quantity_unit=nm quantitative_result=376
compound_smiles=CCCCCCCCCCCCCCCC[n+]1ccc(/C=C/c2ccc(N(C)C)cc2)cc1 value_type="absorption maximum" quantity_unit=nm quantitative_result=479

What absorption maximum value was documented for this compound, CC(C)[Si]1(C(C)C)c2cc(C=C(C#N)C#N)ccc2-c2ccc(N(c3ccccc3)c3ccccc3)cc21 ? 466

What absorption maximum value was documented for this compound, COc1cc(OC)cc(C2=C3C(C)=C(I)C(/C=C/c4c[nH]c5ccccc45)=[N+]3[B-](F)(F)n3c(/C=C/c4c[nH]c5ccccc45)c(I)c(C)c32)c1 ? 727

What absorption maximum value was documented for this compound, COC(=O)c1ccc(-c2nc3ccc(N(C)C)cc3s2)cc1 ? 405

What absorption maximum value was documented for this compound, O=C(N/N=C/c1ccccc1O)c1ccccc1O ? 385

====

protocol.text: solvent given as SMILES
condition.label: in Cc1ccccc1
value.type: absorption maximum (nm)
Give the value, in units of nm, as a plain number.

compound_smiles=O=C1OC(c2ccccc2)=N/C1=C\c1ccc(N(c2ccc(/C=C3\N=C(c4ccccc4)OC3=O)cc2)c2ccc(/C=C3/N=C(c4ccccc4)OC3=O)cc2)cc1 value_type="absorption maximum" quantity_unit=nm quantitative_result=505.5
compound_smiles=N#CC(C#N)=C(c1cccc(N(c2ccccc2)c2ccccc2)c1)c1cccc(N(c2ccccc2)c2ccccc2)c1 value_type="absorption maximum" quantity_unit=nm quantitative_result=374.84
compound_smiles=Cc1cc(-c2nc(-c3ccccc3)nc(-c3ccccc3)n2)ccc1N1c2ccccc2C2(c3ccccc3-c3ccccc32)c2ccccc21 value_type="absorption maximum" quantity_unit=nm quantitative_result=394.19
compound_smiles=CCC1=C(C)C2=C(c3c(C)cc(C)nc3-c3cccs3)c3c(C)c(CC)c(C)n3[B-](F)(F)[N+]2=C1C value_type="absorption maximum" quantity_unit=nm quantitative_result=533
compound_smiles=CCCCCCN(CCCCCC)c1ccc(C#Cc2ccc(/C=C/c3ccc(-c4ccc(/C=C/c5ccc(C#Cc6ccc(N(CCCCCC)CCCCCC)cc6)cc5)cc4)cc3)cc2)cc1 value_type="absorption maximum" quantity_unit=nm quantitative_result=400
compound_smiles=CCCC1=Cc2nc1ccc1[nH]c(cc1CCC)c1nc(c(OC(C)=O)cc3[nH]c2cc3CCC)C(CCC)=C1 value_type="absorption maximum" quantity_unit=nm quantitative_result=645

// below: absorption maximum requested for another compound
What absorption maximum value was documented for this compound, CCC1=C(C)C2=C(C)c3c(C)c(-c4csc(N5CCOCC5)n4)c(C)n3[B-](F)(F)[N+]2=C1C ? 527
